Entry source: PubChem BioAssay

# EXPERIMENT_SUMMARY: splicing luciferase reporter signal modulators, primary screen, spliceosome inhibition project, cell-based, HEK293, splice +/- reporter (AID 1101);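 also: HEK293 cells carrying a splicing-competent luciferase reporter gene; test concentration not given here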
# TEST_CONDITIONS: luminescence, 24 h, higher = more signal, called active from +8 up or from −8 down
Reported z-score by item:
Answer with the value's number alone.

Solved cases below.
INSERT INTO assay_data (compound, readout_name, measurement) VALUES
  ('C=CC[C@]1(C(=O)NCc2ccccc2)N=C(c2ccc(OCCCO)cc2)O[C@H]1c1ccccc1N=[N+]=[N-]', 'z-score', -0.457),
  ('O=C1OCCC/C=C\[C@H]2OC34C=CCN(Cc5ccccc5)C(=O)[C@H]3N(CCCO)C(=O)[C@@H]4C12 (stereo not given in full)', 'z-score', 0.422),
  ('O=C(NCCO)C1=C[C@H](Oc2ccccc2I)[C@@H](O)[C@H](N(Cc2ccco2)C(=O)Cc2ccccc2)C1', 'z-score', -0.0906),
  ('COc1cc2c(cc1OC)CN(C(=O)[C@@H]1[C@H]3C(=O)O[C@H](c4ccccc4)[C@H](c4ccccc4)N3[C@H](c3ccccc3OCCO)[C@@]13C(=O)Nc1ccc(C#CCCO)cc13)CC2', 'z-score', 0.107),
  ('CCCC[C@H]1OB(O)C[C@H]2C1=C(COC)Cn1c(=O)n(-c3ccccc3)c(=O)n12', 'z-score', 0.271);

The measured z-score associated with CCCc1cc2c(n1Cc1cc(F)cc(F)c1)C(C)C1CN(C(=O)c3ccccc3)C(C)(C(=O)OC)C21 (stereo not given) reads -3.1

Form: compound = CC1(C)C2C=C(C(O)C3C=CC4C(=O)NC(=O)C4N3Nc3ccc(Cl)cc3Cl)C[C@@H]1C2 (stereo not given in full) ; z-score = 2.5

###

z-score reference
# EXPERIMENT_SUMMARY: modulators of S6 phosphorylation in cells, primary screen, cell-based, A549, cytoblot, luminescence, serum-stimulated (AID 1158);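 also: serum-stimulated A549 lung adenocarcinoma cells; signal is phosphorylated S6 detected by cytoblot immunostaining with HRP secondary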
# TEST_CONDITIONS: A549 phospho-S6 cytoblot, 5 h, higher = more signal
Answer with a number only.

INSERT INTO results (compound, measurement) VALUES
  ('COCCOC(=O)N1C(=O)[C@@]2(c3cc(C#Cc4ccc(OC)cc4)ccc31)[C@H](c1ccc(O)cc1)N1[C@H](c3ccccc3)[C@H](c3ccccc3)OC(=O)[C@H]1[C@@H]2C(=O)N1CCc2cc(OC)c(OC)cc2C1', 0.035),
  ('CCCCCCc1nc(-c2cc(C)c(OC)c(C)c2)cc2c1[Si](C(C)C)(C(C)C)OC2', 0.296),
  ('O=C(OCc1ccccc1)C1=CCC2c3[nH]c4ccccc4c3C(=O)C1N2S(=O)(=O)c1ccccc1[N+](=O)[O-] (stereo unspecified)', -0.605);

Record C=CCN1C(=O)[C@@]2(CC=C)N=C(c3ccc(OCCCO)cc3)O[C@H]2c2ccccc21 . Reported z-score: 1.63

The reported z-score of the compound COCCOC(=O)N1C(=O)[C@@]2(c3cc(C#CC4(O)CCCCCC4)ccc31)[C@H](c1ccccc1OCCO)N1[C@H](c3ccccc3)[C@H](c3ccccc3)OC(=O)[C@H]1[C@@H]2C(=O)N1CCN(c2ncccn2)CC1 was -0.0324

The compound identified as CC(=O)n1cc(C(O)C2C=CC3C(=O)N(c4ccccc4)C(=O)C3N2Nc2ccc([N+](=O)[O-])cc2)c2ccccc21 (stereo unspecified) registered its z-score at -0.75

// sample CO[C@H]1O[C@H](CO)[C@@H](OC(=O)Nc2ccccc2)[C@H](OC(=O)Nc2ccccc2)[C@@H]1OC(=O)Nc1ccccc1 , its z-score was 0.725

Entry O=C1C[C@@](C(=O)NCCN2CCOCC2)(c2ccc([N+](=O)[O-])cc2)[C@@H](c2ccc(CO)cc2I)N1CC12CC3CC(CC(C3)C1)C2 , z-score reported as 0.238

z-score reported for this compound C=CC[C@]1(C(=O)NCCCOC)N=C(c2ccc(OCCCO)cc2)O[C@H]1c1ccccc1CN=[N+]=[N-] : -0.102

Per the records, this compound ( COc1cc2c(cc1O)C(C1CC1)N(Cc1sc3ccccc3c1Cl)CC2 (stereo unspecified) ) has z-score equal to -0.0956

Form field z-score, entry CC(C)=CCN[C@H](CO)c1ccccc1 : 0.983

Lab note: measured z-score of C=C(CCCC)C(=O)CC[C@@H](OC(=O)c1ccccc1-c1ccccc1C(=O)O)c1ccc(OCCO)cc1 was 0.276

Briefly, z-score measured for CCOC(=O)C[C@H]1[C@H](OC(=O)c2ccc(-c3ccccc3)cc2)[C@@H](NC(=O)Cc2ccc(OC)cc2)c2cc(OCCCO)ccc2N1C(=O)c1ccccc1 : 1.3

// COCCCNC(=O)[C@@H]1c2ccccc2C(=O)N(Cc2ccccc2Cl)[C@H]1c1ccc(CO)cc1 : z-score value = -0.0671

Measured z-score, O=C1O[C@H](c2ccccc2)[C@H](c2ccccc2)N2[C@H]1[C@@H](C(=O)N1CCCCCCC1)[C@]1(C(=O)Nc3ccc(C#CCCO)cc31)[C@H]2c1ccccc1OCCO : -0.319

The recorded z-score for entry C=CCN1C(=O)[C@]2(O[C@H](CCn3cc([C@H](O)c4ccccc4)nn3)[C@@H]([Si](C)(C)c3ccc(OC)cc3)[C@@H]2C)c2ccccc21 equals 0.256

The value of z-score measured for the compound C=C(CC1([C@@H](NP(=O)(c2ccccc2)c2ccccc2)[C@H]2C[C@@H]2CCCC)CC1)c1ccccc1 turned out to be 0.534

Query C=CC[C@]1(C(=O)NCc2ccccc2)N=C(c2ccc(OCCCO)cc2)O[C@H]1c1ccccc1N=[N+]=[N-] yields z-score of 0.0617

get_value(item= C=CCNC(=O)[C@@H]1[C@H]2C(=O)O[C@H](c3ccccc3)[C@H](c3ccccc3)N2[C@H](c2ccccc2OCCO)[C@@]12C(=O)N(C(=O)OCCOC)c1ccccc12 , readout=z-score) returns -0.458

The compound listed as COCCOC(=O)N1C(=O)[C@@]2(c3cc(C#CCC(C(=O)OC)C(=O)OC)ccc31)[C@H](C(=O)N1CCN(c3ncccn3)CC1)[C@H]1C(=O)O[C@H](c3ccccc3)[C@H](c3ccccc3)N1[C@@H]2c1ccccc1OCCO has a reported z-score of 0.0555

Please fill in: z-score reported for C=CCNC(=O)[C@H]1[C@@H]2C(=O)O[C@@H](c3ccccc3)[C@@H](c3ccccc3)N2[C@@H](c2ccccc2OCCO)[C@]12C(=O)Nc1ccc(C#CCCO)cc12 = 0.0418

Consider COC(=O)C(CC#Cc1ccc2c(c1)[C@]1(C(=O)N2)[C@H](C(=O)Nc2nc3ccccc3s2)[C@H]2C(=O)O[C@H](c3ccccc3)[C@H](c3ccccc3)N2[C@@H]1c1ccccc1OCCO)C(=O)OC . Its measured z-score is -0.333

get_value(item= COC(=O)[C@@]1(Cc2ccc(OC)cc2)[C@H]2c3cc(C(=O)N(C)C)n(C)c3C[C@H]2CN1C(=O)c1ccccc1 , readout=z-score) returns 0.775

Recorded result, CC(C)C(CO)N1C(=O)[C@@H]2C3C(=O)OCCC/C=C\[C@H]3OC23C=CCN(CCN2CCOCC2)C(=O)[C@@H]13 (stereo partly specified) , z-score: -0.158

The reported z-score of the compound COC(=O)[C@@]1(Cc2ccccc2)[C@H]2c3cc(C(=O)N(C)C)n(Cc4ccsc4Br)c3C[C@H]2CN1C(=O)c1ccccc1 was -0.259

For record C=CCNC(=O)[C@@H]1[C@H]2C(=O)O[C@H](c3ccccc3)[C@H](c3ccccc3)N2[C@H](c2ccc(O)cc2)[C@@]12C(=O)N(C(=O)OCCOC)c1ccc(C#CCNC(N)=O)cc12 the listed z-score is 1.32

###

# EXPERIMENT_SUMMARY: osmotic lysis modulators in infected erythrocytes, primary screen, PSAC antagonist project, cell-based, P. falciparum Indochina, OD700, 3 h (AID 1156)
# TEST_CONDITIONS: higher = more signal, called active from +8 up or from −8 down
Threshold rule: z-score greater than or equal to 0.8 is 1; below that, 0.

A selection of reference data follows.
INSERT INTO assay_data (structure_as_smiles, discrete_label) VALUES
  ('COc1ccc(CCNC(=O)[C@@]2(Sc3ccc(C)cc3)CC(=O)N(C(C)C)[C@@H]2c2ccc(CO)cc2I)cc1', 0),
  ('C=CC[C@@]12N=C(c3ccc(OCCCO)cc3)O[C@@H]1c1ccccc1N(C)C2=O', 1);

Query: # check: z-score of NC(=O)NCC#Cc1ccc2c(c1)[C@]1(C(=O)N2)[C@H](C(=O)Nc2nc3ccccc3s2)[C@H]2C(=O)O[C@H](c3ccccc3)[C@H](c3ccccc3)N2[C@@H]1c1ccccc1OCCO is greater than or equal to 0.8
Reply: 1

Query: Hello, I need to know if CC[C@@H]1C=C(C(=O)O)[C@H](c2ccc(Br)cc2)N1S(=O)(=O)c1ccc(C)cc1 has measured z-score not below 0.8. Thanks!
Reply: 0

Query: In plain terms: is recorded z-score at least 0.8 for CC(C)[Si](C#Cc1ccc(Oc2ccccc2)cc1)(O[Si](C#Cc1ccc(Oc2ccccc2)cc1)(C(C)C)C(C)C)C(C)C ?
Reply: 0
